assay: yeast display, Sf9 membrane polyspecificity reagent, FACS + sequencing; frameworks hold sequencing errors
reported property: polyreactivity (PSR sort gate)

The examples below pair each entry with its known result.
QVQLVESGAGIVQAGGSLRLTCAASGSTFVIYDMGWSRQAPGKERELVAAISYSGGSTYYADSVKGRFTISRDNAKNTVYLQMNSLKPEDTAVYYCAAEVPYYYPGFYSYYDDSDYWGQGTQVTVSS ... low polyreactivity
QVQLVESGGGLVQAGGSLRLSCAASGSIFDFYVMGWYRQAPGKERELVAGISEGGDSTYYADSVKGRFTISRDNAKNTVYLQMNSLKPEDTAVYYCAKASAKGSYYWGQGTQVTVSS ... low polyreactivity
QVQLVESGGGLVQAGGSLRLSCAASGSTFGNNAMGWYRQAPGKERELVAAITFRGTSTYADSVKGRFTISRDNAKNTVSLQMNSLKPEDTAVYYCAAVVYFVSYRFYYWGQGTQVTVSS ... high polyreactivity
HVQLVESGGGLVQAGGSLRLSCAASGFIFRYYAMGWYRQAPGKERELVAAISWSGTPTFYADSVKGRFTISRDNAKNTVYLQMNSLKPEDTAVYYCAAETTGYDSYIQYEYWGQGTQVTVSS ... high polyreactivity
QVQLVESGGGLVQAGGSLRLSCAASGSTFRYNAMGWYRPAPGKERELVAAITSGGGTNYADSVKGRFTISRDNAKNTVYLQMNSLKPEDTAVYYCAAPWGLGSELLKRDYWGQGTQVTVSS ... low polyreactivity
QVQLVESGGGLVQAGGSLRLSCAASGGISMDNVMGWYRQAPGKERELVAAISKSGGRTFYADSVKGRFTISRDNAKNTVYLQMNSLKPEDTAVYYCAKLYKSKPYWYEHEYWGQGTQVTVSS ... high polyreactivity

From here, focus on the item given below.
Given the sequence QLQLVESGGGLVQAGGSLRLSCAASGGPFRPYAMGWYRQAPGKERELVAAISYTGSTYYADSVKGRFTISRDNAKNTVYLQMNSLKPEDTAVYYCAKDFWYPPRFDYWGQGTQVTVSS , write its reported polyreactivity (PSR sort gate). low polyreactivity

====

assay: yeast display, Sf9 membrane polyspecificity reagent, FACS + sequencing; frameworks hold sequencing errors
reported property: polyreactivity (PSR sort gate)

// solved cases for polyreactivity (PSR sort gate) follow
QVQLVESGGGLVQAGGSLRLSCAASGSIFKEYTMGWYRQAPGKERELVAAITWSDGSTDYADSVKGRFTISRDNAKNTVYLQMNSLKPEDTAVYYCAADYDYPYFWSSGYIDDYWGQGTQVTVSS ... low polyreactivity
QVQLVESGGGLVQAGGSLRLSCAASGRTLGRYAMGWYRHAPGKERELVADISFRGGSTYYADSVKGRFTISRDNAKNTVYLQMNSLKPVDTAVYYCAAVPGPASKYGYWGQGTQVTVSS ... high polyreactivity
QVQLVESGGGLVQAGGSLRLSCAASGLTISAYAMGWYRQAPGKERELVAAITSSGGSTYADSVKGRFTISRDNAKNTVYLQMNSLKPEVTAVYYCAARVVRYGYKYYYWGQGTQVTVSS ... low polyreactivity
QVQLEETGGRLVQAGARLRLSCDASGYIFFFYAMGWYRHAPGKERELDASITYRGGSTYYADSVKGRFTLSRDYAKNTVYLQINSLKPEDTAVYYCIVDGGGPLGPHGFPFDYWGQGTQVTVSS ... low polyreactivity

Note polyreactivity (PSR sort gate) for the sequence shown: QVQLVESGGGLVQAGGSLRLSCAASGRTIRWYAMGWYRQAPGKERELVAAITWIGGSTYYADSVKGRFTISRDNAKNTVYLQMNSLQPEDTAVYYCATDKDDVSDLGKDYAYFEYDYWGQGTQVTVSS low polyreactivity

Look up polyreactivity (PSR sort gate) of QDHLVDSGGGLVQAGGSLRLSCDASGRIFRWYTMGWYRQAPGKERELVATITSSGITSYADSVKGRFTISRDNAKNTDYLQMNSLKPEDTAVYYCAADHYYYIHGYDYWGQGTQVTVSS and report it. high polyreactivity

For the sequence QVQLEDSGGGLVQAGGRLRLTCAASGSIFSLNAMGWSRKAPGKERELVAAINSGGTTNYADSVKGRFTISRDNAKNTVYLQMNSLKPEDSAVYYCATDGYYYYYRVYKFDYWGLGTQVTVSS , report polyreactivity (PSR sort gate). low polyreactivity

Provide one value: measured polyreactivity (PSR sort gate) of QVQLVESGGGLVQAGGSLRLSCAASGGIFSWYDMGWYRQAPGKEREFVATITYSGGSTYYADSVKGRFTISRDNAKNTVYLQMNSLKPEDTAVYYCAAARYWYRRFDYWGQGTQVTVSS high polyreactivity

Read off the recorded polyreactivity (PSR sort gate) for LVQLVESGGGLVQAGGSLRLSCAASGFTFPDYAMGWYRPAPGKERELVAAISSDGSTYYADSVKGRFTISRDNAKNTVYLQMNSLKPEDTAVYYCAAYVVWLYGYDYWGQGTQVTVSS low polyreactivity

Supply recorded polyreactivity (PSR sort gate) for QVQLVESGGGLVQAGGSLRLSCAASGSTLGRYAMGWYRQAPGKERELVAAISSSGTTYYADSVKGRFTISRDNAKNTVYFQMNSLKPEDTAVYYCNARGFRVARHAAWYQYYYWGQGTQVTVSS here. high polyreactivity

// fetch polyreactivity (PSR sort gate) given entry QVQLVESGGGLVQAGGSLRLSCAASGFIFRWYAMGGYRPAPGKERELVASITRCGSTYYADSVKGRFTISRDNAKNTVYLQMNSLKPEDTAVYYCAVDYLSPKYDYWGHGTQVTVSS high polyreactivity

State its polyreactivity (PSR sort gate): QVQLVESGGGLVQAGGSLRLSCAASGFIFTGYAMGWYRPAPRKERELVAAITKSGGSTYYADSVKGRFTISRDNAKNTVYLQMNSLKPEDTAVYYFNTYVWRWSKGGYWGHGTQVTVSS high polyreactivity

====

experiment: yeast display, Sf9 membrane polyspecificity reagent, FACS + sequencing; frameworks hold sequencing errors
reported property: polyreactivity (PSR sort gate)

QVQLVESGGGLVQAGGSLRLSCAASGSTFHDNAMGWYIQAPGKERELVAAISSGGRTNYADSVKGRFTISRDNAKNTVYLQMNSLKPEDTAVYYCAASFRRWYFYDRHEYGYWGQGTQVTVSS ... low polyreactivity
QVQLVESGGGLVQAGGSLRLSCAASGSTFYNNAMGWYRQAPGKERELVAAISNVSTYYADSVKGRFTISRDNAKNTVYLQMNSLKPEDTAVYYCAARGLLWYYSWRYYYWGQGTQVTVSS ... low polyreactivity
QVQLVESGGGLVQAGGSLRLSCAASGRIFNYYAMGSYRQAPGKERDLVAAITSRGGSTYYADSVKGRFTISRDNAKNTVYLQMNSLNPEDTAVYYCNTRVWYPGTIHPVDYWGQGTQVTVSS ... low polyreactivity

====

experiment: yeast display, Sf9 membrane polyspecificity reagent, FACS + sequencing; frameworks hold sequencing errors
reported property: polyreactivity (PSR sort gate)

In the examples that follow, each entry is paired with its recorded polyreactivity (PSR sort gate).
QVQLVESVGGLVQAGGSLRLSCPASGFTFKYYAMGWYRQAPGKEREFVAAISRSGGSTTYADSVKGRFTISRDNAKNTVYLQMNSLKPEDTAVYYCAVAYYTAYTPRDGEYWGQGTQVTVSS ... high polyreactivity
QVQLVESGGGLVQAGGSLRLSCAASGGTFTYYTMGWYRQAPRKERELVAAISTGGRTYYADSVKGRFTISRDNAKNTVYLQMNSLKPEDTAVYYCDADTYTSRSRYSGSGGYDYWGQGTQVTVSS ... low polyreactivity
QVQLVESGGGLVQAGGRLRLSCAASGRTFDRYAMGWYRQAPGKERELVAAITWSGGRTYYADSVKGRFTISRDNAKKTVYLQMNSLKPEDTAVYYCAADNSYRGYHSPYDYWGQGTQVTVSS ... low polyreactivity
QVQLVESGGGLVQAGGSLRLSCAASGFTFRQYAMGWYRQAPGKERELVAAISRSGSRTYYADSVKGRFTISRDNAKNTVYLQMNSLKPEDTAVYYCNAVFSTFTGEYYWGQGSQVTVSS ... high polyreactivity
QVQLVESGGGLVQAGGSLRLSCAASGGIFAPNAMGWYRQAPGKEREFVAAISTGGGSTRYADSVKGRFTISRDNAKNTVYLQMNSLKPEDTAVYYCAAELWYTWLGSPYDYWGQGTQVTVSS ... low polyreactivity

For the sequence QVQLVESGGCLVQAGGSLRLSCAASGRIFPGYAMGWYRQAPGKESEFVAAITASGGTTYYADSVKGRFTISRDNAKNTVYLQMNCLKPEDTAVYYCAKYRYTVAGYNYWGQGTQVTVSS , give its measured polyreactivity (PSR sort gate) value. high polyreactivity

Check the records and state polyreactivity (PSR sort gate) for QVQLVESGGGLVQAGGSLRLSCAASGRIFLSYAMGWYRQAPGNEREFVAAITSSGGSTSYADSVKGRFTISRDNAKNTVYLQMNSLKPEDTAVYYCNDRAYIFGQMKYDYWGQGTQVTVSS low polyreactivity

Give recorded polyreactivity (PSR sort gate). QVQLVESGGGLVQAGGSLRLSCAASGRTFLPNPMGWYRQAPGKERELVAVITSGGSTNYADSVKGRFTISRDNAKNTVYLQMNSLKPEDTAVYYCAADRYSYFYIGYDYWGQGTQVTVSS low polyreactivity

Look up and report measured polyreactivity (PSR sort gate) for this entry: QVQLVESGGGLVQAGGSLRLSCAASASIYAHYEMGWYRQAPGKERELVAAITASGGTTYYADSVKGRFTISRDNAKNTVYLQMNSLKPEDTAVYYCNAGKRTFLYDRDDYWGQGTQVTVSS high polyreactivity

Give the reported value of polyreactivity (PSR sort gate) for this record: QVQLVESGGGLVQAGGSLRLSCAASGSTFAYNDMGWYRLAPGKERELVADIRSGGNTNYADSVKGRFTISRDNAKNTVYLQMNSLKPEDTAVYYCATDGYRIDVYHPDYRYDYWGQGTQVTVSS low polyreactivity

// provenance: the nanobody polyreactivity screen of Harvey et al. (2022)
